assayMethodText: in vitro
assaySetup: dog, CC50 (H1N1/MDCK)
readout: CC50 (µM)

compound: NCCNC(=Nc1ccccc1)NCCNC(=O)C(Cc1c[nH]c2ccccc12)NC(=O)c1cc(Br)ccc1NC(=O)c1ccc2ccccc2c1 (stereo not shown)
val: 147

compound: NCCNC(=O)C(Cc1c[nH]c2ccccc12)NC(=O)c1cc(-c2ccc3ccccc3c2)ccc1N (stereo not shown)
val: 33.3

compound: NCCNC(=Nc1ccccc1)NCCNC(=O)C(Cc1ccccc1)NC(=O)c1cc(Br)ccc1NC(=O)c1ccc2ccccc2c1 (stereo not shown)
val: 47.2

compound: NCCCCC(N)C(=O)NCCNC(=O)C(Cc1c[nH]c2ccccc12)NC(=O)c1cc(Br)ccc1NC(=O)c1ccc2ccccc2c1 (stereo not shown)
val: 112

compound: NCCNC(=O)C(Cc1c[nH]c2ccccc12)NC(=O)c1cc(-c2ccccc2-c2ccccc2)ccc1N (stereo not shown)
val: 79.4

compound: N=C(N)NCCNC(=O)C(Cc1ccccc1)NC(=O)c1cc(Br)ccc1NC(=O)c1ccc2ccccc2c1 (stereo not shown)
val: 128

compound: NCCN=C(NCCN)NCCNC(=O)C(Cc1c[nH]c2ccccc12)NC(=O)c1cc(Br)ccc1NC(=O)c1ccc2ccccc2c1 (stereo not shown)
val: 250

* * *

System: Influenza A Virus (H3N2)
assaySetup: MDCK
Readings of SI Influenza A Virus (H3N2)/MDCK for the listed compounds

compound: NCCCCC(N)C(=O)NCCNC(=O)C(Cc1c[nH]c2ccccc12)NC(=O)c1cc(Br)ccc1NC(=O)c1ccc(-c2ccccc2)cc1 (centres unmarked) [4-BIPL]
testSystem: Influenza A Virus (H3N2)
SI Influenza A Virus (H3N2)/MDCK: 1.2
--
compound: NCCNC(=Nc1ccccc1)NCCNC(=O)C(Cc1ccccc1)NC(=O)c1cc(Br)ccc1NC(=O)c1ccc2ccccc2c1 (centres unmarked) [compound 1096]
testSystem: Influenza A Virus (H3N2)
SI Influenza A Virus (H3N2)/MDCK: 1.9
--
compound: NCCNC(=Nc1ccccc1)NCCNC(=O)C(Cc1c[nH]c2ccccc12)NC(=O)c1cc(Br)ccc1NC(=O)c1ccc2ccccc2c1 (centres unmarked) [compound 758]
testSystem: Influenza A Virus (H3N2)
SI Influenza A Virus (H3N2)/MDCK: 15.8
--
compound: N=C(N)NCCNC(=O)C(Cc1ccccc1)NC(=O)c1cc(Br)ccc1NC(=O)c1ccc2ccccc2c1 (centres unmarked) [compound 1091]
testSystem: Influenza A Virus (H3N2)
SI Influenza A Virus (H3N2)/MDCK: 5.2
--
compound: NCCN=C(NCCN)NCCNC(=O)C(Cc1c[nH]c2ccccc12)NC(=O)c1cc(Br)ccc1NC(=O)c1ccc2ccccc2c1 (centres unmarked) [compound 1083]
testSystem: Influenza A Virus (H3N2)
SI Influenza A Virus (H3N2)/MDCK: 9.05
--
compound: NCCNC(=O)C(Cc1c[nH]c2ccccc12)NC(=O)c1cc(-c2ccc3ccccc3c2)ccc1N (centres unmarked) [compound 610]
testSystem: Influenza A Virus (H3N2)
SI Influenza A Virus (H3N2)/MDCK: 9
--
compound: NCCCCC(N)C(=O)NCCNC(=O)C(Cc1c[nH]c2ccccc12)NC(=O)c1cc(Br)ccc1NC(=O)c1ccc2ccccc2c1 (centres unmarked) [NAPL]
testSystem: Influenza A Virus (H3N2)
SI Influenza A Virus (H3N2)/MDCK: 10.6
--
compound: NCCNC(=O)C(Cc1c[nH]c2ccccc12)NC(=O)c1cc(-c2ccccc2-c2ccccc2)ccc1N (centres unmarked) [Sau-22]
testSystem: Influenza A Virus (H3N2)
SI Influenza A Virus (H3N2)/MDCK: 14.8

* * *

System: Human Adenovirus-5
assayMethodText: microbe, parasite or virus in culture
assaySetup: Human mastadenovirus C, Vero, 3 h, read-out: IC50 Human Adenovirus-5/Vero
Readings of IC50 for the listed molecules
readout: IC50

molecule: NCCNC(=Nc1ccccc1)NCCNC(=O)C(Cc1c[nH]c2ccccc12)NC(=O)c1cc(Br)ccc1NC(=O)c1ccc2ccccc2c1 (stereo not shown)
readout: IC50
val: > 62.5 µM

molecule: NCCNC(=Nc1ccccc1)NCCNC(=O)C(Cc1ccccc1)NC(=O)c1cc(Br)ccc1NC(=O)c1ccc2ccccc2c1 (stereo not shown)
readout: IC50
val: > 62.5 µM

molecule: NCCN=C(NCCN)NCCNC(=O)C(Cc1c[nH]c2ccccc12)NC(=O)c1cc(Br)ccc1NC(=O)c1ccc2ccccc2c1 (stereo not shown)
readout: IC50
val: 47.2 µM

molecule: NCCNC(=O)C(Cc1c[nH]c2ccccc12)NC(=O)c1cc(-c2ccc3ccccc3c2)ccc1N (stereo not shown)
readout: IC50
val: > 62.5 µM

molecule: NCCNC(=O)C(Cc1c[nH]c2ccccc12)NC(=O)c1cc(-c2ccccc2-c2ccccc2)ccc1N (stereo not shown)
readout: IC50
val: > 62.5 µM

molecule: N=C(N)NCCNC(=O)C(Cc1ccccc1)NC(=O)c1cc(Br)ccc1NC(=O)c1ccc2ccccc2c1 (stereo not shown)
readout: IC50
val: > 62.5 µM

molecule: NCCCCC(N)C(=O)NCCNC(=O)C(Cc1c[nH]c2ccccc12)NC(=O)c1cc(Br)ccc1NC(=O)c1ccc2ccccc2c1 (stereo not shown)
readout: IC50
val: 59.3 µM

* * *

Tested on: MDCK cells
assaySetup: dog

compound: NCCCCC(N)C(=O)NCCNC(=O)C(Cc1c[nH]c2ccccc12)NC(=O)c1cc(Br)ccc1NC(=O)c1ccc(-c2ccccc2)cc1 (stereo not shown)
CC50 [µM]: 12.8

* * *

System: Influenza A Virus (H1N1)
assaySetup: read-out: IC50 Influenza A Virus (H1N1)/MDCK

compound: NCCCCC(N)C(=O)NCCNC(=O)C(Cc1c[nH]c2ccccc12)NC(=O)c1cc(Br)ccc1NC(=O)c1ccc(-c2ccccc2)cc1 (stereo not shown)
testSystem: Influenza A Virus (H1N1)
IC50 (µM): 10.3

* * *

System: Influenza A Virus (H3N2)
assayMethodText: microbe, parasite or virus in culture
assaySetup: H3N2, MDCK, 3 h, read-out: IC50 Influenza A Virus (H3N2)/MDCK
pIC50: −log10 of the molar value.
Readings of pIC50 for the listed compounds
readout: pIC50

compound: NCCNC(=O)C(Cc1c[nH]c2ccccc12)NC(=O)c1cc(-c2ccccc2-c2ccccc2)ccc1N (stereo not shown)
val: 5.27
//
compound: NCCNC(=O)C(Cc1c[nH]c2ccccc12)NC(=O)c1cc(-c2ccc3ccccc3c2)ccc1N (stereo not shown)
val: 5.43
//
compound: N=C(N)NCCNC(=O)C(Cc1ccccc1)NC(=O)c1cc(Br)ccc1NC(=O)c1ccc2ccccc2c1 (stereo not shown)
val: 4.62
//
compound: NCCNC(=Nc1ccccc1)NCCNC(=O)C(Cc1ccccc1)NC(=O)c1cc(Br)ccc1NC(=O)c1ccc2ccccc2c1 (stereo not shown)
val: 4.62

* * *

Test system: Murine Norovirus-1
assaySetup: read-out: IC50 Murine Norovirus-1/Raw 246.7

compound: NCCCCC(N)C(=O)NCCNC(=O)C(Cc1c[nH]c2ccccc12)NC(=O)c1cc(Br)ccc1NC(=O)c1ccc(-c2ccccc2)cc1 (stereo not shown) [4-BIPL]
IC50: > 62.5 µM

* * *

Test system: Murine Norovirus-1
assayMethodText: microbe, parasite or virus in culture
assaySetup: Norwalk virus, in Mus musculus, 3 h, read-out: IC50 Murine Norovirus-1/Raw 246.7
Readings of IC50 for the listed compounds
readout: IC50

compound: NCCN=C(NCCN)NCCNC(=O)C(Cc1c[nH]c2ccccc12)NC(=O)c1cc(Br)ccc1NC(=O)c1ccc2ccccc2c1 (stereo not drawn)
val: > 62.5 µM
--
compound: N=C(N)NCCNC(=O)C(Cc1ccccc1)NC(=O)c1cc(Br)ccc1NC(=O)c1ccc2ccccc2c1 (stereo not drawn)
val: > 62.5 µM
--
compound: NCCNC(=Nc1ccccc1)NCCNC(=O)C(Cc1c[nH]c2ccccc12)NC(=O)c1cc(Br)ccc1NC(=O)c1ccc2ccccc2c1 (stereo not drawn)
val: > 62.5 µM

* * *

Test system: Influenza A Virus (H3N2)
assayMethodText: microbe, parasite or virus in culture
assaySetup: H3N2, MDCK, 3 h, read-out: IC50 Influenza A Virus (H3N2)/MDCK
Readings of IC50 for the listed molecules
readout: IC50 (µM)

molecule: NCCCCC(N)C(=O)NCCNC(=O)C(Cc1c[nH]c2ccccc12)NC(=O)c1cc(Br)ccc1NC(=O)c1ccc2ccccc2c1 (stereo not drawn)
val: 10.5
//
molecule: NCCNC(=Nc1ccccc1)NCCNC(=O)C(Cc1c[nH]c2ccccc12)NC(=O)c1cc(Br)ccc1NC(=O)c1ccc2ccccc2c1 (stereo not drawn)
val: 9.3
//
molecule: NCCN=C(NCCN)NCCNC(=O)C(Cc1c[nH]c2ccccc12)NC(=O)c1cc(Br)ccc1NC(=O)c1ccc2ccccc2c1 (stereo not drawn)
val: 27.7

* * *

assayMethodText: in vitro
assaySetup: dog
Peptide text beside a SMILES is read from it.

compound: N=C(N)NCCC[C@H](NC(=O)[C@H](CCCNC(=N)N)NC(=O)[C@H](CCCNC(=N)N)NC(=O)[C@H](CCCNC(=N)N)NC(=O)CNC(=O)CNC(=O)[C@H](CCCNC(=N)N)NC(=O)[C@H](CCCNC(=N)N)NC(=O)[C@H](CCCNC(=N)N)NC(=O)[C@H](CCCNC(=N)N)NC(=O)[C@H](CCCNC(=N)N)NC(=O)[C@H](CCCNC(=N)N)NC(=O)[C@H](CCCCN)NC(=O)[C@H](CCCNC(=N)N)NC(=O)[C@H](CCCCN)NC(=O)[C@H](CC(N)=O)NC(=O)[C@@H](N)CCCCN)C(=O)O [Mel4] (H-KNKRKRRRRRRGGRRRR-OH)
CC50: 12.7 µM
